# measured_on: the molecule itself
# protocol_text: SEC-MALS
reported_metric: stoichiometry N

- protein: "HisSUMO-tagged Mer2 coiled-coil domain (residues 41–224) (domain or fragment) KVANAGALEESDKQILEWAGKLELESMELRENSDKLIKVLNENSKTLCKSLNKFNQLLEQDAATNGNVKTLIKDLASQIENQLDKVSTAMLSKGDEKKTKSDSSYRQVLVEEISRYNSKITRHVTNKQHETEKSMRCTQEMLFNVGSQLEDVHKVLLSLSKDMHSLQTRQTALEMAFREKADHA"
  recorded_value: 4
- protein: "HisSUMO-IHO1 coiled-coil domain (residues 109–267) (M. musculus) (domain or fragment) GKSKGLSKQFEEKKRRATDQSDSETLHSFVSHFPEVINKLQTSVEKTEENLSSRSQSILDSVETIAKTFQETARVQHDLMVESVRDKGSMEQAILEIQRTCAARQAEFMEMKSTLKNLEVLVVEQTKNLQQFCDNLSQLIVPGILEELKKFTSVPQVAG"
  recorded_value: 4
- protein: "HisSUMO-PRD3 coiled-coil domain (residues 120–270) (A. thaliana) (domain or fragment) IGESKSQISEELEQRFGMMETSLSRFGMMLDSIQSDIMQANRGTKEVFLETERIQQKLTLQDTSLQQLRKEQADSKASLDGGVKFILEEFSKDPNQEKLQKILQMLTTIPEQVETALQKIQREICHTFTREIQVLASLRTPEPRVRVPTAP"
  recorded_value: 4
